# target under test: PH domain of PDK1 (Homo sapiens, UniProt O15530)
# Sequence (O15530 459-550 limits assumed): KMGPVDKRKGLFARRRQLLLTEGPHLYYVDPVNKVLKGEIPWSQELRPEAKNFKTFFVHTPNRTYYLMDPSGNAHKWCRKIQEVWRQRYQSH
quantity measured: Kd (µM)

CCCCCCCCCCCCc1ccc(S(=O)(=O)Nc2nncs2)cc1 ... 90.1

###

# target under test: PH domain of PDK1 (Homo sapiens, UniProt O15530)
quantity measured: Ki

CCCCCCCCCCCCc1ccc(S(=O)(=O)Nc2nncs2)cc1 [Compound 27] ... 5.5 µM
